Reported TGI values for the following molecules.
Tested on: SNB-19 CNS
assay-details: NCI tumour cell line growth inhibition, 48 h
quantity: TGI

INSERT INTO results (molecule, tested_target, quantity, assay_value) VALUES
  ('CCC1=NC(N/N=C/c2ccco2)=N/C1=C\c1ccco1', 'SNB-19 CNS', 'TGI', '> 100 µM'),
  ('N#CC1=C(N)Oc2c(ccc3cccnc23)C1c1ccccc1 (stereo not drawn)', 'SNB-19 CNS', 'TGI', '> 74.1 µM'),
  ('CC(=O)O[C@H]1C(=O)[C@@]2(C)[C@H]([C@H](OC(=O)c3ccccc3)[C@]3(O)C[C@H](OC(=O)[C@H](O)[C@@H](NC(=O)C(C)(O)C(C)O)c4ccccc4)C(C)=C1C3(C)C)[C@]1(OC(C)=O)CO[C@@H]1C[C@@H]2O (stereo partly drawn)', 'SNB-19 CNS', 'TGI', '> 50 µM');

====

Reported GI50 values for the following molecules.
Tested on: SF-539 CNS
assay-details: NCI tumour cell line growth inhibition, 48 h
quantity: GI50

INSERT INTO measurements (molecule, quantity, assay_value) VALUES
  ('CCOC(=O)CC1C(CNC(=O)NC)OC(n2cnc3c(NC(=O)Nc4ccccc4)ncnc32)C1O[Si](C)(C)C(C)(C)C (centres undefined)', 'GI50', '5.19 µM'),
  ('CCN(CC)CCC(CNc1c(C)cnc2cc(Cl)ccc12)c1ccc(Cl)c(Cl)c1 (centres undefined)', 'GI50', '1.77 µM'),
  ('Nc1nc(N)c2cc(S(=O)(=O)c3ccccc3)ccc2n1', 'GI50', '2.05 µM'),
  ('Cc1cc(O)cc(-c2nn(C)cc2-c2cc(N3CCOCC3)nc(-c3cccnc3)n2)c1', 'GI50', '1.88 µM'),
  ('NC(N)=N/N=C/c1c(-c2cccs2)nc2n1CCS2', 'GI50', '19.2 µM'),
  ('CN1CCN(c2ccc(NC(=O)c3cncnc3Nc3ccc4c(ccn4Cc4cccc(F)c4)c3)cc2)CC1', 'GI50', '1.35 µM'),
  ('CC(C)CCCC(C)[C@H]1CCC2C3CC=C4C[C@@H](OC(=O)CC(CC(=O)[O-])C(=O)[O-])CC[C@]4(C)C3CC[C@@]21C.N.N.[Pt+4] (some centres undefined)', 'GI50', '> 100 µM'),
  ('Cc1ccc(Nn2c(SCC(=O)Nc3nc(-c4ccccc4)cs3)nc(C)c2C)cc1', 'GI50', '4.68 µM'),
  ('CN1CCC(n2cnc(-c3ccc(F)cc3)c2-c2ccnc(Nc3ccccc3)n2)CC1', 'GI50', '13.2 µM');

====

Test system: SF-268 CNS
assay-details: NCI tumour cell line growth inhibition, 48 h
Reported TGI values for the following molecules.
quantity: TGI

INSERT INTO measurements (molecule, tested_target, quantity, assay_value) VALUES
  ('Cc1c(-c2cc(-c3ccccc3)n[nH]c2=O)c2ccccc2n1C', 'SF-268 CNS', 'TGI', '> 100 µM'),
  ('O=C1C2CCCCC2C(=O)N1n1c(Cc2ccccc2)n[nH]c1=O (centres undefined)', 'SF-268 CNS', 'TGI', '> 100 µM'),
  ('COc1ccc(N2C(=O)C3c4[nH]c5ccc(OC)cc5c4C4CCC(c5ccccc5)CC4C3C2=O)cc1 (centres undefined)', 'SF-268 CNS', 'TGI', '> 46.6 µM'),
  ('CN1C(CC(O)c2ccccc2)CCCC1CC(O)(c1ccccc1)c1ccccc1 (centres undefined)', 'SF-268 CNS', 'TGI', '43.7 µM'),
  ('COc1ccc(-n2nc(C(=O)c3ccccc3)c3nn4c(=O)cc(-c5ccccc5)nc4nc32)cc1', 'SF-268 CNS', 'TGI', '> 100 µM'),
  ('Cc1ccc([N+](=O)[O-])cc1S(=O)(=O)Nc1ccc(C2=NN(C(=O)c3ccccc3)C(c3ccccc3O)C2)cc1 (centres undefined)', 'SF-268 CNS', 'TGI', '45.9 µM'),
  ('O=C(CC(=O)c1cccc2ccccc12)C(=O)Nc1nccs1', 'SF-268 CNS', 'TGI', '> 100 µM'),
  ('C=C(C)[C@@H]1CC[C@]2(COC(=O)c3ccccc3C(=O)O)CC[C@]3(C)[C@H](CC[C@@H]4[C@@]5(C)CC[C@H](OC(=O)c6ccccc6C(=O)O)C(C)(C)[C@@H]5CC[C@]43C)[C@@H]12', 'SF-268 CNS', 'TGI', '> 100 µM'),
  ('CC(C)C(=O)/C=C/c1ccc(Cl)cc1Cl', 'SF-268 CNS', 'TGI', '22.5 µM');
